- TESTED_ON: HDAC7 (Homo sapiens, UniProt Q8WUI4)
- Construct: Recombinant, full-length HDAC protein (BPS Biosciences) was incubated with fluorophore conjugated substrate
- Sequence (Q8WUI4 whole entry): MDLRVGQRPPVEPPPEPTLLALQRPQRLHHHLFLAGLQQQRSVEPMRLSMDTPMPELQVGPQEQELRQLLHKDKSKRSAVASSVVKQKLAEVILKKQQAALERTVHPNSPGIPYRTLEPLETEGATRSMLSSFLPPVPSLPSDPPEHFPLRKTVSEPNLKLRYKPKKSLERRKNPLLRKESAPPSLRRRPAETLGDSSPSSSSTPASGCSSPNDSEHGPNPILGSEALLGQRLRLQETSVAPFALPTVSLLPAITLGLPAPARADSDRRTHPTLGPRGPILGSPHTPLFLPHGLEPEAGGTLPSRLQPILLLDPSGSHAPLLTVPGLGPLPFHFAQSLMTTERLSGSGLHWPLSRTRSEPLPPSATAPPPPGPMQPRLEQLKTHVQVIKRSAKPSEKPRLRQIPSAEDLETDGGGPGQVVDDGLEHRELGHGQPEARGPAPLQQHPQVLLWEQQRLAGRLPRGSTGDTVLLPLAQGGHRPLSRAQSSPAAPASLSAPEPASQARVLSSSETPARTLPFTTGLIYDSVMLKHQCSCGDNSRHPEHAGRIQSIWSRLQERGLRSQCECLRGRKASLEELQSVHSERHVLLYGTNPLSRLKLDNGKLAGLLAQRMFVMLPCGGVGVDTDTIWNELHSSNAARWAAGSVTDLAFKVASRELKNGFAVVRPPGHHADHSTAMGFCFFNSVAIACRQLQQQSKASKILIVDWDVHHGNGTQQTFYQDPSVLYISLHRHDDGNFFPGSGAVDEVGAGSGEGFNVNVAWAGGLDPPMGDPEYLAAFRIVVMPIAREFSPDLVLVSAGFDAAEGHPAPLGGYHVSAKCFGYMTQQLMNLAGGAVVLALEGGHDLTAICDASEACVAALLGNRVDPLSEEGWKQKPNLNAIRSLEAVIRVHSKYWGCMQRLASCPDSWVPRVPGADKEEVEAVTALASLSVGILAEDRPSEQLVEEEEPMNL
- ASSAY_PROTOCOL: In vitro HDAC enzyme inhibition assay, HDAC7
- CONDITION_LABEL: recombinant full-length HDAC7, substrate MAZ1675 22 μM
ENDPOINT_LABEL: IC50 (nM)

Consider the reported IC50 for these compounds:
Cc1ccc2c(c1)ncn2Cc1ccc(C(=O)NO)cc1 [A8]: 418
O=C(NO)c1ccc(Cn2cnc3cc(Br)ccc32)cc1 [A11]: 71.1
O=C(NO)c1ccc(Cn2cnc3cc(Cl)ccc32)cc1 [A10]: 278

a. COc1ccc2c(c1)[nH]c(=O)n2Cc1ccc(C(=O)NO)cc1 [B7]
b. Cc1ccc2c(c1)nc(C(F)(F)F)n2Cc1ccc(C(=O)NO)cc1 [A2]
Task item: Of a and b , which carries the smaller reported IC50 figure? Lab log: write the label of the selected item as the result.
Reply: b
